Value source: patent US9162993B2

# protocol notes: MTT assay, RAW264.7 cell viability
# Assay type: cell-based
# condition label: mouse; RAW 264.7 cells; cytotoxic concentration that produces 50% cell death
Hi there, I'd appreciate the recorded CC50 for every entry that follows.
Numeric answer only, unit µM assumed.

# CC50 (molecule: O=c1oc2ccc(-c3ccc(F)cc3F)cc2c(=O)n1-c1cccc(C(F)(F)F)c1 ) is 13

# CC50 (molecule: O=C(Nc1cc(F)ccc1F)c1cc(-c2ccc(F)cc2F)ccc1O ) is 14.6

# CC50 (molecule: O=c1oc2ccc(-c3ccc(F)cc3F)cc2c(=O)n1-c1cc(F)ccc1F ) is 10.8

# CC50 (molecule: O=C(Nc1ccc(F)c(F)c1)c1cc(-c2ccc(F)cc2F)ccc1O ) is 14.6

# CC50 (molecule: N#Cc1cccc(-n2c(=O)oc3ccc(-c4ccc(F)cc4F)cc3c2=O)c1 ) is 14.9

# CC50 (molecule: O=c1oc2ccc(-c3ccc(F)cc3F)cc2c(=O)n1-c1ccccc1C(F)(F)F ) is 15.1

# CC50 (molecule: N#Cc1cccc(NC(=O)c2cc(-c3ccc(F)cc3F)ccc2O)c1 ) is 12.3

# CC50 (molecule: O=c1oc2ccc(-c3ccc(F)cc3F)cc2c(=O)n1-c1ccc(F)cc1F ) is 12.7

# CC50 (molecule: O=C(Nc1ccc(C(F)(F)F)cc1)c1cc(-c2ccc(F)cc2F)ccc1O ) is 10.4

# CC50 (molecule: N#Cc1ccc(NC(=O)c2cc(-c3ccc(F)cc3F)ccc2O)cc1 ) is 14.4

# CC50 (molecule: O=C(Nc1cccc(C(F)(F)F)c1)c1cc(-c2ccc(F)cc2F)ccc1O ) is 14.3

# CC50 (molecule: O=c1oc2ccc(-c3ccc(F)cc3F)cc2c(=O)n1-c1ccc(C(F)(F)F)cc1 ) is 15.5
